Test Conditions: buffer; pH 7.4; 200.0 µM
Please provide measured log10 solubility kinetic for the entries that follow.
Hey, these are logged values: log10 of solubility kinetic, µg/mL being the unit before logging.

The cases that follow already have their log10 solubility kinetic on record.
- Compound: "O=S(=O)(NCc1ccco1)c1ccc(Cl)cc1Cl"
  log10 solubility kinetic: 1.54
- Compound: "C/C(=N\\O)c1ccc(Cl)cc1Cl"
  log10 solubility kinetic: 1.36
- Compound: "CSc1cccc(NC(=S)N2CCC(c3ccccc3)C2)c1 (stereo not drawn)"
  log10 solubility kinetic: 0.34
- Compound: "Cc1ccnc(NC(=O)c2cccc(S(=O)(=O)Nc3ccc(C)cc3C)c2)c1"
  log10 solubility kinetic: 1.03
- Compound: "COc1ccc(CCC(=O)NC2CCC(C)CC2)cc1 (stereo not drawn)"
  log10 solubility kinetic: 1.35
- Compound: "COc1ccc(N2C(=O)c3ccccc3S2(=O)=O)cc1"
  log10 solubility kinetic: 0.18

// fetch log10 solubility kinetic given entry S=C(NCc1cccnc1)NCc1cccnc1
1.57

====

Test Conditions: buffer; pH 7.4; 200.0 µM
Endpoint Label: solubility kinetic (µg/mL)
One number for each entry, in µg/mL.

The cases that follow already have their solubility kinetic on record.
- Compound: "CN(C)C(=S)Nc1ccc(Cc2ccncc2)cc1"
  solubility kinetic / µg/mL: 36.5
- Compound: "N#Cc1c(-c2cccnc2)cc(-c2ccccc2)nc1N"
  solubility kinetic / µg/mL: 2.4
- Compound: "O=C(COc1ccc(Cl)cc1Br)Nc1ccncc1"
  solubility kinetic / µg/mL: 5
- Compound: "CC(C)C(OC(=O)/C=C/c1ccc2c(c1)OCO2)C(=O)NC(N)=O (configuration not stated)"
  solubility kinetic / µg/mL: 6.6
- Compound: "CC(=O)COC(=O)c1ccc2noc(-c3ccccc3)c2c1"
  solubility kinetic / µg/mL: 8

Provide solubility kinetic values for the following items, in order.
1. COc1ccc(CNc2ccc(Cl)cc2)cc1Cn1ccnc1
2. Cc1cccc(Cl)c1OCCCn1ccnc1.O=C(O)C(=O)O

1: 31.1; 2: 45.4

Provide solubility kinetic values for the following items, in order.
1. Cn1c(=O)c2[nH]c(SCC(=O)c3ccc(F)cc3)nc2n(C)c1=O
2. Cc1ccc(C(C)NC(=O)C2CCCC2)cc1C (configuration not stated)

7.5
31.4

====

Please provide measured log10(solubility kinetic) for the entries that follow.
Test Conditions: buffer; pH 7.4; 200.0 µM
Hey, these are logged values: log10 of solubility kinetic, µg/mL being the unit before logging.

The cases that follow already have their log10(solubility kinetic) on record.
- Molecule: "O=C(/C=C/c1ccccc1)Oc1cccc(C(=S)N2CCOCC2)c1"
  log10(solubility kinetic): 0.66
- Molecule: "CC(=O)c1ccc(N2CCc3ccccc3C2)c([N+](=O)[O-])c1"
  log10(solubility kinetic): 0.92
- Molecule: "CC(=O)Nc1cccc(Oc2nc(-c3ccccn3)nc3ccccc23)c1"
  log10(solubility kinetic): -0.10
- Molecule: "CCC(C)Nc1nc(N)c([N+](=O)[O-])c(Nc2ccccc2OC)n1 (centres undefined)"
  log10(solubility kinetic): 0.41
- Molecule: "Cc1ccc(-c2ccc(C(=O)NCCCNC(=O)c3cnccn3)o2)cc1Cl"
  log10(solubility kinetic): 0.80
- Molecule: "O=c1c2ccccc2nc(-c2ccccc2)n1-c1ccccc1O"
  log10(solubility kinetic): 1.58

Provide log10(solubility kinetic) values for the following items, in order.
1. CC(=O)c1cccc(NC(=O)C2C3CCC(C3)C2C(=O)O)c1 (centres undefined)
2. O=C1CCCc2ccccc2N1Cc1cccc(F)c1
3. O=C(OCC(=O)N1CCc2ccccc2C1)c1ccc(F)cc1Cl
4. Cc1cccc(Nc2nc(C)cc(C)n2)c1.Cl
5. COc1ccccc1Oc1coc2cc(OCC(N)=O)ccc2c1=O
6. CC(C)(C)S(=O)(=O)c1cnc(-c2ccccn2)nc1N

[1.63, 1.56, 1.57, 1.30, 1.68, 1.53]

Provide log10(solubility kinetic) values for the following items, in order.
1. CCCCCCCCNc1nc(Cl)nc(NCCN2CCOCC2)n1
2. CCCCc1c(O)c2cccc3c2n(c1=O)CCC3
3. O=C(CNC(=O)C1COc2ccccc2O1)Nc1ccc(F)c(F)c1 (centres undefined)

-0.30
1.55
1.26

Provide log10(solubility kinetic) values for the following items, in order.
1. COc1ccc(NC(=O)CNC(=O)C2CCCCC2)cc1
2. CCOC(=O)N1CCN(CC(c2ccccc2)c2ccccc2)CC1
3. Cc1ccc(NC(=O)CSc2nc(N)cc(=O)[nH]2)cc1S(=O)(=O)N1CCCCC1

1. 1.60
2. 1.41
3. 1.67

====

Test Conditions: buffer; pH 7.4; 200.0 µM
Use t when the recorded solubility kinetic is no lower than 20 µg/mL; use f when it is lower.

Worked examples follow.
- Compound: "COc1ccc(C)cc1NC(=O)C1CCCCN1S(=O)(=O)c1ccccc1 (stereo not drawn)"
  Category: "f"
- Compound: "O=C(O)c1ccccc1Nc1ccc2nonc2c1[N+](=O)[O-]"
  Category: "t"

Exam item: decide whether the reported solubility kinetic for Cc1cc(NC(=O)COC(=O)C2CSC3(C)CCC(=O)N23)ccc1Br (stereo not drawn) is at least 20 µg/mL.
t

Exam item: decide whether the reported solubility kinetic for CC1(C(=O)OCC(=O)Nc2ccccc2)CC1(Cl)Cl (stereo not drawn) is at least 20 µg/mL.
t

Exam item: decide whether the reported solubility kinetic for NC(=O)c1sc2nc(-c3ccccc3)ccc2c1N is at least 20 µg/mL.
f

====

Test Conditions: buffer; pH 7.4; 200.0 µM
Endpoint Label: solubility kinetic

- Molecule: "COc1ccc(C(=O)NCC(=O)OCc2ccccc2F)cc1"
  solubility kinetic: "47.6 µg/mL"

Provide solubility kinetic values for the following items, in order.
1. Cc1nc(SCC(=O)NC(=O)NC(C)C)nc(C)c1C
2. Cc1ccc(NC(=S)NCCSc2ccc(Cl)cc2)cc1
3. C=CCNc1nc2ccccc2c(=O)[nH]1
4. O=S1(=O)CC2SC(=S)N(Cc3ccccc3)C2C1 (configuration not stated)
5. COc1ccccc1C(C)NCC(=O)Nc1c(F)cccc1F (configuration not stated)
6. COc1ccccc1OCC(O)CNCc1ccc2c(c1)OCO2 (configuration not stated)
7. COc1ccccc1NC(=O)c1ccccc1NC(=O)c1ccccc1C(=O)O
8. O=C(COC(=O)COc1ccccc1)NCc1ccc2c(c1)OCO2

["> 44.5 µg/mL", "< 0.4 µg/mL", "29.1 µg/mL", "1.8 µg/mL", "> 48.1 µg/mL", "47.4 µg/mL", "> 58.6 µg/mL", "> 51.5 µg/mL"]

====

Test Conditions: buffer; pH 7.4; 200.0 µM
Endpoint Label: log10 of solubility kinetic (log10 of the value in µg/mL)
Hey, these are logged values: log10 of solubility kinetic, µg/mL being the unit before logging.

- Compound: "Cc1cccc(NC(=O)C2COc3ccccc3O2)c1 (configuration not stated)"
  log10 of solubility kinetic: 0.89
- Compound: "CCCOc1ccc(CC(=O)NCCc2ccccc2)cc1OC"
  log10 of solubility kinetic: 1.31
- Compound: "O=C(Nc1cccc(Cl)c1N1CCOCC1)c1cccs1"
  log10 of solubility kinetic: 0.20
- Compound: "COc1ccc(NC(=O)O/N=C/c2ccc(N(C)C)cc2)cc1"
  log10 of solubility kinetic: 0.45
- Compound: "CC(=O)c1ccc(N2CCN(C(=O)c3cc4c(s3)CCCC4)CC2)cc1"
  log10 of solubility kinetic: 1.03

// fetch log10 of solubility kinetic given entry COc1cccc(NC(=O)CN2C(=O)COc3ccc(C)cc32)c1
0.28

====

Test Conditions: buffer; pH 7.4; 200.0 µM
Endpoint Label: solubility kinetic

Provide solubility kinetic values for the following items, in order.
1. O=C(Nc1ccc2[nH]c(=O)[nH]c2c1)c1cccc([N+](=O)[O-])c1
2. COCCNc1nnc(Cc2ccc(OC)c(OC)c2)c(=O)[nH]1
3. O=C(Nc1ccc2oc(-c3ccncc3)nc2c1)c1ccccc1
4. Cc1nc2c(=O)n(-c3ccc(F)cc3F)nc(C)c2s1

1. 1.2 µg/mL
2. > 48.1 µg/mL
3. < 0.2 µg/mL
4. > 44 µg/mL

Provide solubility kinetic values for the following items, in order.
1. CCN1CCCC1Cn1cnc2c([nH]c3ccc(OC)cc32)c1=O (stereo unspecified)
2. O=C(CN1C(=O)NC2(CCCCCC2)C1=O)NCc1ccc(F)cc1

> 49 µg/mL
> 52.1 µg/mL

====

Test Conditions: buffer; pH 7.4; 200.0 µM
Endpoint Label: log10(solubility kinetic) (log10 of the value in µg/mL)
Hey, these are logged values: log10 of solubility kinetic, µg/mL being the unit before logging.

- Compound: "CCOC(=O)C1=C(CN2CCCCCC2)NC(=O)NC1c1ccc2c(c1)OCO2 (configuration not stated)"
  log10(solubility kinetic): 1.73

Provide log10(solubility kinetic) values for the following items, in order.
1. Cc1ccc(CNC(=O)c2ccc(C)s2)cc1
2. COc1ccc(S(=O)(=O)NCC2CCCO2)cc1Cl (configuration not stated)
3. CC(C)c1nc2cc(Cl)ccc2n(Cc2ccccc2)c1=O
4. Cc1ccn2cc(CCNC(=O)COc3ccccc3)nc2c1

1.28
1.53
-0.40
1.61
